- System: rodent lifetime carcinogenesis bioassay, tumor incidence TD50
- assay_overview: carcinogenic potency in animals, long-term in vivo studies, CPDB compilation (AID 1745844)
- settings: rat; strain Fischer 344; males; in feed; site: kidney; lesion: tubule adenoma; dosed 104 weeks; study length 105 weeks
measured_endpoint: TD50 (mg/kg/day)
Write it as a number; the unit mg/kg/day goes unstated.

What does the record list as TD50 for `OCC(CO)(CBr)CBr` ?
1550

====

- Test system: rodent lifetime carcinogenesis bioassay, tumor incidence TD50
- assay_overview: carcinogenic potency in animals, long-term in vivo studies, CPDB compilation (AID 1745844)
- settings: rat; strain Fischer 344; males; in drinking water; site: kidney; lesion: several types; types named in the paper; dosed 100 weeks; study length 100 weeks
measured_endpoint: TD50

I'd like to know its TD50. The compound in question is `[O-][Br+2]([O-])O`
20.8 mg/kg/day

====

- Tested on: rodent lifetime carcinogenesis bioassay, tumor incidence TD50
- assay_overview: carcinogenic potency in animals, long-term in vivo studies, CPDB compilation (AID 1745844)
- settings: rat; strain Fischer 344; females; inhaled; site: mammary gland; lesion: fibroadenoma; dosed 102 weeks; study length 104 weeks
measured_endpoint: TD50

Requested field: TD50. Item: `ClCCl`
632 mg/kg/day

====

Each record here notes measured TD50.
- Tested on: rodent lifetime carcinogenesis bioassay, tumor incidence TD50
- assay_overview: carcinogenic potency in animals, long-term in vivo studies, CPDB compilation (AID 1745844)
- settings: mouse; strain B6C3F1; males; in feed; site: lung; lesion: alveolar/bronchiolar adenoma; dosed 81 weeks; study length 81 weeks
Respond with the bare value in mg/kg/day.

Return reported TD50; argument: `Cc1cccc2ccccc12`
244

Item under review: `Cc1ccc2ccccc2c1` . Reported TD50?
735

====

- Tested on: rodent lifetime carcinogenesis bioassay, tumor incidence TD50
- assay_overview: carcinogenic potency in animals, long-term in vivo studies, CPDB compilation (AID 1745844)
- settings: mouse; strain Swiss; females; in feed; site: all sites; lesion: lymphocytic leukemia; dosed 46 weeks; study length 66 weeks
measured_endpoint: TD50

Before answering, review these 3 worked examples.
Can you look up the measured TD50 of `NNc1nc(-c2ccc(N)cc2)cs1` for me?
11.3 mg/kg/day

I have this compound here, `O=CNc1nc(-c2ccc([N+](=O)[O-])o2)cs1` , and I need its recorded TD50.
78.3 mg/kg/day

Return reported TD50; argument: `NNc1nc(-c2ccc([N+](=O)[O-])cc2)cs1`
10.6 mg/kg/day

// next entry
Need TD50 of `Nc1nc(-c2ccc([N+](=O)[O-])cc2)cs1` , thanks.
9.95 mg/kg/day

====

- Tested on: rodent lifetime carcinogenesis bioassay, tumor incidence TD50
- assay_overview: carcinogenic potency in animals, long-term in vivo studies, CPDB compilation (AID 1745844)
- settings: rat; strain Charles River CD (Sprague-Dawley); females; in feed; site: kidney; lesion: several types; types named in the paper; dosed 104 weeks; study length 104 weeks
measured_endpoint: TD50 (mg/kg/day)
Write the answer as a number in mg/kg/day, unit excluded.

For the compound shown here, O=C1C2CC=CCC2C(=O)N1SC(Cl)(Cl)Cl (stereo unspecified) , give the reported TD50.
17900

====

- Tested on: rodent lifetime carcinogenesis bioassay, tumor incidence TD50
- assay_overview: carcinogenic potency in animals, long-term in vivo studies, CPDB compilation (AID 1745844)
- settings: monkey; strain Rhesus [Macaca mulatta]; both sexes; in feed; site: any site (literature study); lesion: benign tumor; dosed 774 weeks; study length 851 weeks
measured_endpoint: TD50 (mg/kg/day)
Reply numerically in mg/kg/day, unit not repeated.

Requested field: TD50. Item: `Cn1cnc([N+](=O)[O-])c1Sc1ncnc2nc[nH]c12`
4.89
